Kindly state MFC for each of the entries shown.
Test system: Histoplasma capsulatum (G217-B/ATCC 26032)
Experiment: microbe, parasite or virus in culture
Type: cell-based
Details: ATCC26032

Enquiry: Give the measured MFC of "O=C(/C=C/c1ccc([N+](=O)[O-])o1)c1cc(F)c(Cl)cc1Cl" .
Return: > 250 µg/mL

Enquiry: Try this compound too: "CN(C)CCCNC(=O)c1ccc([N+](=O)[O-])o1"
Return: > 250 µg/mL

Enquiry: Try this compound too: "CS(=O)(=O)c1ccc(C(=O)/C=C/c2ccc([N+](=O)[O-])o2)cc1"
Return: > 250 µg/mL
